# Organism: Homo sapiens
# PROTOCOL DESCRIPTION: Binding affinity to 15N-labeled RING1B (10 to 116 residues)/BMI1 (1 to 104 residues) (unknown origin) extracted from Escherichia coli BL21 (DE3) cells assessed as sum of A79, G83 and T89 chemical shift perturbations at 100 uM by NMR binding analysis
PROPERTY MEASURED: Activity (Hz)

These solved cases illustrate the format of a correct answer.
Prompt line: What does the data say about its Activity? Entry: CC(c1c(-c2cccc3[nH]ccc23)[nH]c(C(=O)O)c1-c1cccc2[nH]ccc12)C(F)F (stereo not drawn)
Response line: 215

Prompt line: What does the data say about its Activity? Entry: CCOc1cc(-c2c(C(=O)O)[nH]c(-c3cc(F)cc4[nH]ccc34)c2C(C)C)c2cc[nH]c2c1
Response line: 313

Prompt line: What does the data say about its Activity? Entry: CC(CF)c1c(-c2cccc3[nH]ccc23)[nH]c(C(=O)O)c1-c1cccc2[nH]ccc12 (stereo not drawn)
Response line: 216

Prompt line: What does the data say about its Activity? Entry: CCC(C)c1c(-c2cccc3[nH]ccc23)[nH]c(C(=O)O)c1-c1cccc2[nH]ccc12 (stereo not drawn)
Response line: 268

Prompt line: What does the data say about its Activity? Entry: CC(C)c1c(-c2cc(F)cc3[nH]ccc23)[nH]c(C(=O)O)c1-c1cccc2[nH]ccc12
Response line: 308

Prompt line: What does the data say about its Activity? Entry: COc1cc(-c2c(C(=O)O)[nH]c(-c3cc(F)cc4[nH]ccc34)c2C(C)C)c2cc[nH]c2c1
Response line: 318

a = CC(C)c1c(-c2cc(F)cc3[nH]ccc23)[nH]c(C(=O)O)c1-c1cc(C(F)(F)F)cc2[nH]ccc12
b = CC(CO)c1c(-c2cccc3[nH]ccc23)[nH]c(C(=O)O)c1-c1cccc2[nH]ccc12 (stereo not drawn)
Prompt line: Two entries are listed, a and b . Which one carries the higher Activity? Kindly give the label for the entry you pick.
Response line: a

---

# Species on record: Homo sapiens
# PROTOCOL DESCRIPTION: Binding affinity to 15N-labeled RING1B (10 to 116 residues)/BMI1 (1 to 104 residues) (unknown origin) extracted from Escherichia coli BL21 (DE3) cells assessed as ratio of chemical shift perturbations at 1:2 compound concentration ration by NMR binding analysis
PROPERTY MEASURED: Ratio

These solved cases illustrate the format of a correct answer.
Prompt line: What does the data say about its Ratio? Entry: COc1cc(-c2c(C(=O)O)[nH]c(-c3cc(F)cc4[nH]ccc34)c2C(C)C)c2cc[nH]c2c1
Response line: 0.92

Prompt line: What does the data say about its Ratio? Entry: CC(C)c1c(-c2cc(F)cc3[nH]ccc23)[nH]c(C(=O)O)c1-c1cccc2[nH]ccc12
Response line: 0.94

Prompt line: What does the data say about its Ratio? Entry: O=C(O)c1[nH]c(-c2cccc3[nH]ccc23)c(C2CC2)c1-c1cccc2[nH]ccc12
Response line: 0.65

1 = CCc1c(-c2cccc3[nH]ccc23)[nH]c(C(=O)O)c1-c1cccc2[nH]ccc12
2 = CC(C)c1c(-c2cc(F)cc3[nH]ccc23)[nH]c(C(=O)O)c1-c1cc(Cl)cc2[nH]ccc12
Prompt line: Two entries are listed, 1 and 2 . Which one carries the higher Ratio? Kindly give the label for the entry you pick.
Response line: 2
(2: 0.92, 1: 0.63)

Numbers sourced from ChEMBL document CHEMBL6096680.
